Tested on: SpTbr T-box DNA-binding domain (GST fusion);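 also: protein at 200 nM in PBS on universal double-stranded arrays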
Sequence: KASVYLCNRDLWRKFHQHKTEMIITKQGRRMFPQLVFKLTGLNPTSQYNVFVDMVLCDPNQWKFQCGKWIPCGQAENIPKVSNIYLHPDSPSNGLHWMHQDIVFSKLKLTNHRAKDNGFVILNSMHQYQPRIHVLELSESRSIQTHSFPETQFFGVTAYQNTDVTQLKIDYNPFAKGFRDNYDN
ASSAY_PROCEDURE: PBM E-score of 8-mer (E-score (dimensionless, -0.5 to 0.5)); higher = stronger binding preference
MEASUREMENT_CONDITIONS: the construct has about 5 more residues each side
Over roughly 33,000 sequences, “E-score (dimensionless, -0.5 to 0.5)” has its median near -0.046; the highest 2% begin near 0.36. This is one part of a sample in which the highest values are shown more often than they occur.
OBSERVED_PROPERTY: PBM E-score of 8-mer
Answer as a number with no unit attached.

# lookup: PBM E-score of 8-mer of GGGTGTAC
-0.0335

# lookup: PBM E-score of 8-mer of AGGTGTAC
0.294

# lookup: PBM E-score of 8-mer of ATGATGAA
-0.154

# lookup: PBM E-score of 8-mer of AGGTGACC
0.151

----------
System: SpTbr T-box DNA-binding domain (GST fusion);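 also: protein at 200 nM in PBS on universal double-stranded arrays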
Sequence: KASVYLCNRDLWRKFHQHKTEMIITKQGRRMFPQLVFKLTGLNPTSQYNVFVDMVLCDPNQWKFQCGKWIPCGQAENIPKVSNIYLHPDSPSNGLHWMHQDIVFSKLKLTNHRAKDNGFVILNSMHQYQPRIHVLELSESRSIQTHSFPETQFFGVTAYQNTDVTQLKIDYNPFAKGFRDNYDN
ASSAY_PROCEDURE: PBM E-score of 8-mer (E-score (dimensionless, -0.5 to 0.5)); higher = stronger binding preference
MEASUREMENT_CONDITIONS: target sequence: T-box / the construct has about 5 more residues each side
In all, about 33,000 sequences were measured (“E-score (dimensionless, -0.5 to 0.5)”: median about -0.046, highest 2% from about 0.36 on). What follows is part of a selection rich in the highest values, with near analogues and random picks from the rest.
// values below are reported PBM E-score of 8-mer
Answer as a number with no unit attached.

// known answers, use as guide
SEQ_TEXT	PBM E-score of 8-mer
ATTCAAAT	-0.0886
CAAGTTCG	0.0356
AGGCGTGG	0.321
GTCGCGTA	0.0514

# lookup: PBM E-score of 8-mer of AGGTTTAA
-0.0723

# lookup: PBM E-score of 8-mer of GCGCGTGA
0.344

# lookup: PBM E-score of 8-mer of ATGCGTGA
0.374

----------
// values below are reported PBM E-score of 8-mer
Tested on: SpTbr T-box DNA-binding domain (GST fusion);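 also: protein at 200 nM in PBS on universal double-stranded arrays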
Sequence: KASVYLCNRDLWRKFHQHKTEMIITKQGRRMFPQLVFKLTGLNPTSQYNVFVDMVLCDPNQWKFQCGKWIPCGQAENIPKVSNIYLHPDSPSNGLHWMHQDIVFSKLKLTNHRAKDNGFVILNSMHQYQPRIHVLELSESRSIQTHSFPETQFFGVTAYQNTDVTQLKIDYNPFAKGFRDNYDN
ASSAY_PROCEDURE: PBM E-score of 8-mer (E-score (dimensionless, -0.5 to 0.5)); higher = stronger binding preference
MEASUREMENT_CONDITIONS: target sequence: T-box / the construct has about 5 more residues each side
The full ranking holds about 33,000 sequences; the median of “E-score (dimensionless, -0.5 to 0.5)” is about -0.046, and the highest 2% start at about 0.36. For the sample, the highest values were picked, then their nearest neighbours and some sequences at random.
Answer as a number with no unit attached.

// known answers, use as guide
SEQ_TEXT	RECORDED_VALUE
ACGTGTTA	0.431
GTTCAACA	-0.118
GCTCGCAC	0.425

# lookup: PBM E-score of 8-mer of CTCCTCAG
-0.0357

# lookup: PBM E-score of 8-mer of CGTGCGAA
0.444

# lookup: PBM E-score of 8-mer of GAAATGGA
-0.101

# lookup: PBM E-score of 8-mer of AGGACTAT
-0.234

# lookup: PBM E-score of 8-mer of CGCGAAAA
0.347

# lookup: PBM E-score of 8-mer of AATGCGAA
0.0358

# lookup: PBM E-score of 8-mer of ACTCGCAT
-0.00696

# lookup: PBM E-score of 8-mer of AACCTCAG
-0.244

# lookup: PBM E-score of 8-mer of GCTCGCCC
-0.196

# lookup: PBM E-score of 8-mer of AGGTAGCA
0.0725

# lookup: PBM E-score of 8-mer of ACTCGATG
-0.0556

# lookup: PBM E-score of 8-mer of CGGCCGAA
-0.16

# lookup: PBM E-score of 8-mer of GTTGTGAA
0.4

# lookup: PBM E-score of 8-mer of GCTCGCAA
0.224

# lookup: PBM E-score of 8-mer of CGCGCGGC
0.208

----------
System: SpTbr T-box DNA-binding domain (GST fusion);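 also: protein at 200 nM in PBS on universal double-stranded arrays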
Sequence: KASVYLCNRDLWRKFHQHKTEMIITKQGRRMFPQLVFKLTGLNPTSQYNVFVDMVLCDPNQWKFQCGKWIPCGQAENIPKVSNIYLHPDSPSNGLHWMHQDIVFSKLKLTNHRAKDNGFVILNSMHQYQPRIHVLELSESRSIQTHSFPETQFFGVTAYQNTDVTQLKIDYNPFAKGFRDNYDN
ASSAY_PROCEDURE: PBM E-score of 8-mer (E-score (dimensionless, -0.5 to 0.5)); higher = stronger binding preference
MEASUREMENT_CONDITIONS: target sequence: T-box / the construct has about 5 more residues each side
Over roughly 33,000 sequences, “E-score (dimensionless, -0.5 to 0.5)” has its median near -0.046; the highest 2% begin near 0.36. Many of the other results were omitted from the sample, so the highest values are more common in it than they were.
// class assignment uses PBM E-score of 8-mer with these ranges: bin A = under -0.002, bin B = from -0.002 up to 0.1, bin C = 0.1 and over

SEQ_TEXT	CLASS
ACCATTGA	bin B

# bin label for CCCATCAC
bin C

# bin label for ATATGAAT
bin A

# bin label for CAACGGTC
bin C

----------
Test system: SpTbr T-box DNA-binding domain (GST fusion);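 also: protein at 200 nM in PBS on universal double-stranded arrays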
Sequence: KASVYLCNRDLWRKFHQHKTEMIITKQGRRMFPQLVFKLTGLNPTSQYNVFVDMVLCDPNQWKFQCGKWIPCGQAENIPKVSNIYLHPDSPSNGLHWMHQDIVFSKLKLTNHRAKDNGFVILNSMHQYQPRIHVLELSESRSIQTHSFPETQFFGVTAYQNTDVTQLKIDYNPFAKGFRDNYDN
ASSAY_PROCEDURE: PBM E-score of 8-mer (E-score (dimensionless, -0.5 to 0.5)); higher = stronger binding preference
MEASUREMENT_CONDITIONS: target sequence: T-box / the construct has about 5 more residues each side
Whole data set: some 33,000 sequences, median “E-score (dimensionless, -0.5 to 0.5)” near -0.046, cut for the highest 2% near 0.36. This excerpt belongs to a sample that is enriched for the highest values.
Label criterion met for high-side PBM E-score of 8-mer (at or above -0.04) and criterion not met for low-side PBM E-score of 8-mer (below it).

Here's what some known entries look like.
SEQ_TEXT	CLASS
GACACCTA	criterion met
CGGTGCCA	criterion met
AAGGTCAC	criterion met

Determine whether measured PBM E-score of 8-mer meets or exceeds -0.04 for ACTTCGAG
criterion met

Determine whether measured PBM E-score of 8-mer meets or exceeds -0.04 for ATCACAGG
criterion met

Determine whether measured PBM E-score of 8-mer meets or exceeds -0.04 for AGTGTTAA
criterion met

Determine whether measured PBM E-score of 8-mer meets or exceeds -0.04 for CGTGTTGA
criterion met

----------
// values below are reported PBM E-score of 8-mer
Tested on: SpTbr T-box DNA-binding domain (GST fusion);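 also: protein at 200 nM in PBS on universal double-stranded arrays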
Sequence: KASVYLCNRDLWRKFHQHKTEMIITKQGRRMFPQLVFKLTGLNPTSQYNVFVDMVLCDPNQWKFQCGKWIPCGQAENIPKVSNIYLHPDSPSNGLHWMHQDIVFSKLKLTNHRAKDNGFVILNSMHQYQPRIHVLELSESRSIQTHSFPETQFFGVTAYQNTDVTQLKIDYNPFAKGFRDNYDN
ASSAY_PROCEDURE: PBM E-score of 8-mer (E-score (dimensionless, -0.5 to 0.5)); Tbr is Tbrain of the sea star Patiria miniata (Pm) or the sea urchin Strongylocentrotus purpuratus (Sp); higher = stronger binding preference
MEASUREMENT_CONDITIONS: target sequence: T-box / the construct has about 5 more residues each side
In all, about 33,000 sequences were measured (“E-score (dimensionless, -0.5 to 0.5)”: median about -0.046, highest 2% from about 0.36 on). The sample holds the highest values, similar sequences and a random draw of the others, so the mix is not that of the screen.
Answer as a number with no unit attached.

SEQ_TEXT	PBM E-score of 8-mer
AAGTGCTC	0.118
AAAGTGGT	0.00031
ATCGTCAC	0.381
ACACCCGC	0.379

# lookup: PBM E-score of 8-mer of ATCGTCAA
0.158

# lookup: PBM E-score of 8-mer of AAAGTGTC
0.393

# lookup: PBM E-score of 8-mer of GAGTGCCA
0.205

# lookup: PBM E-score of 8-mer of TCACCCGA
0.0108

# lookup: PBM E-score of 8-mer of GCACCCGC
0.305

# lookup: PBM E-score of 8-mer of CACAAGTC
0.166

# lookup: PBM E-score of 8-mer of AAGTGCCA
0.405

# lookup: PBM E-score of 8-mer of GACTCGAC
-0.0494

# lookup: PBM E-score of 8-mer of ATGTGCCA
0.374

# lookup: PBM E-score of 8-mer of CTCGTCAC
0.389
